METHOD DESCRIPTION: Phase 1 multiple-dose pharmacokinetics (PN002/Part II)
MEASUREMENT CONDITIONS: human, plasma, 18 mg, AUC24, M02, Day 7, CX-8998 18 mg once daily
QUANTITY KIND: AUC (µM·h)
Give the quantity in µM·h, number only.

Qu. Give reported AUC value for C[C@@H](NC(=O)Cc1ccc(C(C)(C)O)cc1)c1ccc(OCC(F)(F)F)cn1
Ans. 7.97

----------
METHOD DESCRIPTION: in vivo
MEASUREMENT CONDITIONS: male, Beagle, dog, CSF, po, 300 mg/kg
QUANTITY KIND: concentration at 24 h (nM)
A number alone suffices; assume nM.

Qu. Assign concentration at 24 h to the following record: C=C(C)c1ccc(CC(=O)N[C@H](C)c2ccc(OCC(F)(F)F)cn2)cc1
Ans. 149

----------
METHOD DESCRIPTION: In vitro plasma protein binding, dog
Format: in vitro ADME
MEASUREMENT CONDITIONS: dog plasma, read-out: In vitro plasma protein binding (converted)
Entries annotated with measured fraction unbound
Write no unit; give the number alone.

| COMPOUND | fraction unbound |
| --- | --- |
| C=C(C)c1ccc(CC(=O)N[C@H](C)c2ccc(OCC(F)(F)F)cn2)cc1 [M01] | 0.003 |

Consider the record given below.
Qu. Give a short answer stating reported fraction unbound for C[C@@H](NC(=O)Cc1ccc(C(C)(C)O)cc1)c1ccc(OCC(F)(F)F)cn1 [M02] .
Ans. 0.18

----------
AUC by entry:
METHOD DESCRIPTION: in vivo
MEASUREMENT CONDITIONS: female, rat, po, 300 mg/kg
Respond numerically; units are µM·h and should not be typed.

Answered cases to consult:
| COMPOUND | AUC, µM·h |
| --- | --- |
| CC(C(=O)O)c1ccc(CC(=O)N[C@H](C)c2ccc(OCC(F)(F)F)cn2)cc1 (stereo partly shown) [M03] | 169 |
| C[C@@H](NC(=O)Cc1ccc(C(C)(C)O)cc1)c1ccc(OCC(F)(F)F)cn1 [M02] | 511 |
| C=C(C)c1ccc(CC(=O)N[C@H](C)c2ccc(OCC(F)(F)F)cn2)cc1 [M01] | 234 |

Qu. State its AUC: CC(CO)c1ccc(CC(=O)N[C@H](C)c2ccc(OCC(F)(F)F)cn2)cc1 (stereo partly shown) [M04]
Ans. 55.3

Source: patent US11311522B1
